# target_or_test_system: human cloned somatostatin receptor 1 (human) (UniProt P30872)
# Sequence (P30872 whole entry): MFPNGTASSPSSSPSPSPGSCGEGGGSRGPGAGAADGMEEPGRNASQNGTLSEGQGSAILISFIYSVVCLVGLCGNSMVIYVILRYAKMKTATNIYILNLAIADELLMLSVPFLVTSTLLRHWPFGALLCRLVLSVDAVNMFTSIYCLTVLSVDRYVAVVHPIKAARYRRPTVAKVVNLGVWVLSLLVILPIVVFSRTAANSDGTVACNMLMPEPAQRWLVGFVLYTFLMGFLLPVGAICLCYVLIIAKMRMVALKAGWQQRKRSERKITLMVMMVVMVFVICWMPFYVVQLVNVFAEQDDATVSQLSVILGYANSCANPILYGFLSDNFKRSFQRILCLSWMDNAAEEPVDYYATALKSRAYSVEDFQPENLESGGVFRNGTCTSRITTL
# experimental_details: 125I-Tyr11-SRIF-14 displacement
*1 amine or outer side, *2 acyl side, *3 side chain or, on linkers, in order; H or OH if unused. Bridges are numbered along the chain shown (N, C = ends). [ ]: non-standard residue; d: D form. The star is where a group is joined. DOTA = O=C(O)CN1CCN(CC(=O)O)CCN(CC(=O)*)CCN(CC(=O)O)CC1; N(2-mercaptoethyl)Gly = O=C(CN(CCS[*:3])[*:1])[*:2]; Glutaryl = O=C(CCCC(=O)[*:2])[*:1]; Aoc = NCCCCCCCC(=O)O; CPT = camptothecin
Would you mind telling me the reported % displacement at 10 nM of each entry?
Quick note: number first, unit second.

Returns the measured % displacement at 10 nM for the input binder. Input: {DOTA-Aoc}-[dF]RCF[dW]KTF[N(2-mercaptoethyl)Gly]-NH2 (disulfide 3-9) [SEQ ID NO: 15] 18%

// query: {Niraparib-Glutaryl}-[dF]RCF[dW]KTF[N(2-mercaptoethyl)Gly]-NH2 (disulfide 3-9) [SEQ ID NO: 28] 23%

// query: {DOTA}-[dF]RCY[dW]KTF[N(2-mercaptoethyl)Gly]-NH2 (disulfide 3-9; SMILES C[C@@H](O)[C@@H]1NC(=O)[C@H](CCCCN)NC(=O)[C@@H](Cc2c[nH]c3ccccc23)NC(=O)[C@H](Cc2ccc(O)cc2)NC(=O)[C@@H](NC(=O)[C@H](CCCNC(=N)N)NC(=O)[C@@H](Cc2ccccc2)NC(=O)CN2CCN(CC(=O)O)CCN(CC(=O)O)CCN(CC(=O)O)CC2)CSSCCN(CC(N)=O)C(=O)[C@H](Cc2ccccc2)NC1=O) [SEQ ID NO: 25] 15%

// query: {CPT-Aoc}-[dF]RCF[dW]KTF[N(2-mercaptoethyl)Gly]-NH2 (disulfide 3-9) [SEQ ID NO: 27] 3%
